FYI, the data here is from patent US20250188110A1.

experimental.target: KMT9 (Homo sapiens, UniProt Q9Y5N5)
Sequence (Q9Y5N5 whole entry): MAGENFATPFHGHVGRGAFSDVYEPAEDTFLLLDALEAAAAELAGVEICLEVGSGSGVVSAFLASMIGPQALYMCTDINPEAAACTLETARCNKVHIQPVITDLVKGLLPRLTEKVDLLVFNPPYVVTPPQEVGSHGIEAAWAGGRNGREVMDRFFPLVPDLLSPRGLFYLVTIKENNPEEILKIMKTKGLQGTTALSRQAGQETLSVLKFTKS
Sequence (Q9UI30 1-120 isoform Q9UI30-2 partner): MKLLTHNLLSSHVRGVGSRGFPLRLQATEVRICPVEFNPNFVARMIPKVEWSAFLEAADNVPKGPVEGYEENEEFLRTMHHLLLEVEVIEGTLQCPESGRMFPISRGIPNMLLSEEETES
measurement.description: Microscale thermophoresis (MST) KMT9 binding
run.conditions: His-tag labelled KMT9 20 nM; Kd class; read-out: MST
pKd: −log10 of the molar value.
metric: pKd

molecule="CN1CCCC([C@H]2C[C@@H](n3cc(-c4nc(Cc5ccccc5)cs4)c4cnc(Cl)nc43)[C@H](O)[C@@H]2O)C1 (stereo partly drawn)" experimental_result="6.00 to 7.00"
molecule="Nc1ncnc2c1c(-c1nc(Cc3ccccc3)cs1)cn2[C@@H]1C[C@H]([C@H]2CCNC2)[C@@H](O)[C@H]1O [Compound 589R]" experimental_result="6.00 to 7.00"
molecule=CN1CCC([C@H]2C[C@@H](n3cc(-c4ccn(S(=O)(=O)c5ccccc5)n4)c4cnc(Cl)nc43)[C@H](O)[C@@H]2O)CC1 experimental_result="7.00 to 8.00"

###

experimental.target: KMT9 (Homo sapiens)
measurement.description: KMT9 methyltransferase inhibition assay, 3H-SAM scintillation (entries 1-154)
Format: biochemical
run.conditions: entries 1-154: 3H-SAM assay, 25 nM KMT9, 5 μM ETF1
pIC50: −log10 of the molar value.
Reported pIC50 values follow for various compounds
metric: pIC50

structure_smiles=Nc1ncnc2c1c(I)cn2[C@@H]1C[C@H](CNCCCNCCc2ccccc2)[C@@H](O)[C@H]1O metric=pIC50 experimental_result="6.00 to 7.00"
structure_smiles=CCc1cn([C@@H]2C[C@H](CNCCCNCCc3ccccc3)[C@@H](O)[C@H]2O)c2ncnc(N)c12 metric=pIC50 experimental_result="5.00 to 6.00"
structure_smiles=CNc1ncnc2c1ccn2[C@@H]1C[C@H](COCC(=O)NCCc2ccccc2)[C@@H](O)[C@H]1O metric=pIC50 experimental_result="< 5.00"
structure_smiles=O=S(=O)(c1ccccc1)n1ccc(-c2cn([C@@H]3C[C@H](CNCCCNCCc4ccccc4)[C@@H](O)[C@H]3O)c3ncncc23)n1 metric=pIC50 experimental_result="5.00 to 6.00"
structure_smiles=CNc1ncnc2c1ccn2[C@@H]1C[C@H](CSCCN)[C@@H](O)[C@H]1O metric=pIC50 experimental_result="< 5.00"
structure_smiles=Nc1ncnc2c1c(-c1nccs1)cn2[C@@H]1C[C@H](CNCCCNCCc2ccccc2)[C@@H](O)[C@H]1O metric=pIC50 experimental_result="5.00 to 6.00"

###

Reported ΔTm at 500 µM values follow for various compounds
experimental.target: KMT9 (Homo sapiens)
measurement.description: KMT9 thermal shift assay (SyproOrange)
Assay type: binding
run.conditions: ΔTm class; 500 uM compound, 2 μM KMT9; read-out: Thermal shift
metric: ΔTm at 500 µM

structure_smiles=Nc1ncnc2c1ccn2[C@@H]1C[C@H](c2cccc(-c3cncs3)c2)[C@@H](O)[C@H]1O experimental_result="≤ 10 °C"
structure_smiles=Nc1ncnc2c1ccn2[C@@H]1C[C@H](c2cccc(-c3cn[nH]c3)c2)[C@@H](O)[C@H]1O experimental_result="≤ 10 °C"
structure_smiles=Nc1ncnc2c1ccn2[C@@H]1C[C@H](c2ccn[nH]2)[C@@H](O)[C@H]1O experimental_result="≤ 10 °C"
structure_smiles=Nc1ncnc2c1ccn2[C@@H]1C[C@H](c2ccc(O)cc2)[C@@H](O)[C@H]1O experimental_result="10 to 15 °C"
structure_smiles=CN1CCC([C@H]2C[C@@H](n3cc(-c4ccn(Cc5ccccc5)n4)c4cnc(Cl)nc43)[C@H](O)[C@@H]2O)CC1 experimental_result="15 to 20 °C"
structure_smiles=O[C@@H]1[C@H](O)[C@@H](C2=CCCN(CCc3ccccc3)C2)C[C@H]1n1cc(-c2nc(Cc3ccccc3)cs2)c2cnc(Cl)nc21 experimental_result="≤ 10 °C"
structure_smiles=Nc1ccc([C@H]2C[C@@H](n3ccc4c(N)ncnc43)[C@H](O)[C@@H]2O)cc1 experimental_result="≤ 10 °C"
structure_smiles=Nc1ncnc2c1ccn2[C@@H]1C[C@H](c2cccc(O)c2)[C@@H](O)[C@H]1O experimental_result="≤ 10 °C"
